target: GRIP2_6, Q9C0E4; test: holdup assay; set-up: key: below the threshold = too weak to quantify, mostly under pKd 3.1 to 4; conditions: plain residues with an end cap or a label only (N-terminal biotin on a linker: ado-ado)
Sequence (Q9C0E4 648-740): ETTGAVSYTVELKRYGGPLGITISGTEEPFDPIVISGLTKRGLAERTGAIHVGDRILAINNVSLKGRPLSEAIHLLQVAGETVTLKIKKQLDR
propertyName: pKd

# binder, pKd
rows = [
    ("LLQEEWETVM [PTH1R, Q03431]", "below the threshold"),
    ("SKQFDKNAYV [CLDN10, P78369]", "below the threshold"),
    ("TFSRRPKTRV [CD226, Q15762]", "below the threshold"),
    ("IGHEDLETAV [DGKI, O75912]", "below the threshold"),
    ("NNMAFETTHF [SLC5A12, Q1EHB4]", "below the threshold"),
]

For the binder GDSSRKEYFI [GYPC, P04921] , what pKd is on record?
4.67

Let us now turn to WAKEKQHTRL [SLC17A1, Q14916]
below the threshold

Let us now turn to SAGADSETHC [SLCO1B1, Q9Y6L6]
below the threshold

Let us now turn to KSRPENGTVC [TMEM178B, H3BS89]
below the threshold

Let us now turn to QQGLLPHSSC [TYRO3, Q06418]
below the threshold

Let us now turn to KKTPVSRSHL [SLC22A3, O75751]
below the threshold

Let us now turn to HLSTRQGTCV [ATRNL1, Q5VV63]
below the threshold

Let us now turn to SRPHTNETSL [MCC, P23508]
below the threshold

Let us now turn to GSQSQVETEA [FKBP4, Q02790]
below the threshold

Let us now turn to STYCDYTIEI [FAM71C, Q8NEG0]
4.14

Let us now turn to THREVKFTSL [CD46, P15529]
3.98

Let us now turn to PDSYHRRDFW [U2AF2, P26368]
below the threshold

Let us now turn to DAAHHDESNC [FMNL3, Q8IVF7]
below the threshold

Let us now turn to FLVTEFNVML [DFNB31, Q9P202]
4.06

Let us now turn to LPPPESESKV [KCNJ9, Q92806]
below the threshold

Let us now turn to NKSEPFLTWL [WWTR1, Q9GZV5]
below the threshold

Let us now turn to AHGSTRDQSI [KCNB1, Q14721]
below the threshold

Let us now turn to DLLGGGSDSI [TNRC6B, Q9UPQ9]
below the threshold

Let us now turn to HDDYFYHDEL [RCN2, Q14257]
below the threshold

Let us now turn to ATKDKKITTV [EXOC4, Q96A65]
below the threshold
